Reported clearance is given for each of the following compounds.
- PROTOCOL_SUMMARY: Clearance in Sprague-Dawley rat at 1 mg/kg, iv
- Assay type: ADME, organism-based
- EXPERIMENTAL_PARAMETERS: in vivo

{"columns": ["CHEM_SMILES", "clearance"],
 "data": [
  ["CC1(C)Cc2c(c(C(=O)Nc3ccc(C(F)(F)F)cn3)cc3nc(Nc4c(Cl)cccc4Cl)[nH]c23)O1", "16.2 mL/min/kg"],
  ["Cc1cccc(Cl)c1Nc1nc2cc(C(=O)Nc3cc(C(F)(F)F)ccc3F)c3c(c2[nH]1)CC(C)(C)O3", "8.2 mL/min/kg"],
  ["CC1(C)Cc2c(c(C(=O)Nc3ccc(F)c(C(F)(F)F)c3)cc3nc(Nc4c(F)cccc4Cl)[nH]c23)O1", "11.2 mL/min/kg"]
]}
